Task for the reader: assign each of the following compounds its reported IC50.
measured.on: human orexin-1 receptor (Homo sapiens)
Construct: expressed in transfected cells; host or cells: Chinese hamster ovary (CHO) cells
Sequence (O43613 whole entry): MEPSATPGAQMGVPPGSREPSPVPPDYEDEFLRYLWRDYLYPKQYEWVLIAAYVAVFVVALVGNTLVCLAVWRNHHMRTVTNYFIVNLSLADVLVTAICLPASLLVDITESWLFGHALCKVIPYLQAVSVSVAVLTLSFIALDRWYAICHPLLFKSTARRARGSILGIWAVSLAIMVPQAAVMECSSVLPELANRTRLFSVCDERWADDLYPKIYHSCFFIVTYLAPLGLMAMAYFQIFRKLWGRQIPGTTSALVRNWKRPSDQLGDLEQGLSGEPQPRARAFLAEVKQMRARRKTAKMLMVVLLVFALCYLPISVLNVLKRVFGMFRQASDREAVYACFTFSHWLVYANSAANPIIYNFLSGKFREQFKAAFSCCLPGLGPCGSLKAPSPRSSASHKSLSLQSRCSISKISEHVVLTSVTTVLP
procedure.summary: FLIPR calcium assay of orexin receptor antagonistic activity, CHO cells expressing human orexin-1 receptor
Type: cell-based
assay.setup: 3 nM orexin-A as agonist; not normalized; *2/*3 = geometric mean of n = 2/3 values; read-out: OX1 IC50
Numbers only, in nM.

# count of solved cases: 6
Cc1cccc(-c2sccc2C(=O)N2CCSC2CNC(=O)c2cccc3ncsc23)c1 (racemic) [Example 109] :: 7
Cc1nc(C(=O)N2CCSC2CNC(=O)c2nn(C)c3ccccc23)c(-c2ccc(C(F)(F)F)cc2)s1 (racemic) [Example 61] :: 16
Cc1cccc(-c2sc(C)nc2C(=O)N2CCSC2CNC(=O)c2ccc(C(F)(F)F)c3oc(C)cc23)c1 (racemic) [Example 11] :: 17
Cc1ccc(-c2ccccc2C(=O)N2CCSC2CNC(=O)c2cccc3ncsc23)cc1C (racemic) [Example 72] :: 12
Cc1nc(C(=O)N2CCSC2CNC(=O)c2nn(C)c3ccccc23)c(-c2ccc(C)c(F)c2F)s1 (racemic) [Example 126] :: 11
Cc1nc(C(=O)N2CCSC2CNC(=O)c2cccc3ncsc23)c(-c2ccccc2)o1 (racemic) [Example 88] :: 4

What value of measured IC50 is listed for Cc1nc(C(=O)N2CCSC2CNC(=O)c2cccc3c2OCCO3)c(-c2cccc(F)c2)o1 (racemic) [Example 95] ? 23

----------
Task for the reader: assign each of the following compounds its reported log10 IC50.
measured.on: human orexin-2 receptor (Homo sapiens, UniProt O43614)
Construct: expressed in transfected cells; host or cells: Chinese hamster ovary (CHO) cells
Sequence (O43614 whole entry): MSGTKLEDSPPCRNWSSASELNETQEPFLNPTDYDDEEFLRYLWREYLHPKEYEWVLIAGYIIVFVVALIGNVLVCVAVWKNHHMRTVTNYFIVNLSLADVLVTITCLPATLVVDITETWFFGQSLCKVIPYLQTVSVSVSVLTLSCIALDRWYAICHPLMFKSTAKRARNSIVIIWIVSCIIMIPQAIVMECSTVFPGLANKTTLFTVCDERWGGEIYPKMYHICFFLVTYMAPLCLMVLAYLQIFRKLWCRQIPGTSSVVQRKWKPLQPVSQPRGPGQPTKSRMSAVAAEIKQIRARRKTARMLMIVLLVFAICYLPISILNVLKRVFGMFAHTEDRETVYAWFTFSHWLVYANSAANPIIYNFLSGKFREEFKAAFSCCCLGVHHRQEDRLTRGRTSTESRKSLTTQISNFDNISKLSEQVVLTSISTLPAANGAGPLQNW
procedure.summary: FLIPR calcium assay of orexin receptor antagonistic activity, CHO cells expressing human orexin-2 receptor
Type: cell-based
assay.setup: read-out: OX2 IC50
Hi team, quick reminder: these entries are log10 of IC50 (nM).

# count of solved cases: 5
Cc1cccc(-c2sc(C)nc2C(=O)N2CCSC2CNC(=O)c2cnn(C)c2C(F)(F)F)c1 (racemic) :: 1.08
CCc1onc(C)c1C(=O)NCC1SCCN1C(=O)c1nc(C)sc1-c1cccc(C)c1 (racemic) :: 0.95
COc1ncccc1C(=O)NCC1SCCN1C(=O)c1nc(C)sc1-c1cccc(C)c1 (racemic) :: 1.18
Cc1cccc(-c2sc(C)nc2C(=O)N2CCSC2CNC(=O)c2nc(C)oc2C)c1 (racemic) :: 0.90
COc1cccc(-c2nccnc2C(=O)N2CCSC2CNC(=O)c2cccc3ncsc23)c1 (racemic) :: 0.48

Consider the following items and state reported log10 IC50 for each.
1. Cc1cccc(-c2sc(C)nc2C(=O)N2CCSC2CNC(=O)c2sc(C)nc2C)c1 (racemic)
2. Cc1cccc(-c2sc(C)nc2C(=O)N2CCSC2CNC(=O)c2cccc(C(F)(F)F)n2)c1 (racemic)

0.70
1.61

----------
measured.on: human orexin-2 receptor (Homo sapiens)
Construct: expressed in transfected cells; host or cells: Chinese hamster ovary (CHO) cells
procedure.summary: FLIPR calcium assay of orexin receptor antagonistic activity, CHO cells expressing human orexin-2 receptor
Format: cell-based
assay.setup: 3 nM orexin-A as agonist; not normalized; *2/*3 = geometric mean of n = 2/3 values; read-out: OX2 IC50
property: pIC50
Answers are plain numbers, as −log10 of the molar value.

Cc1cccc(-c2sc(C)nc2C(=O)N2CCSC2CNC(=O)c2ccn3ccsc23)c1 (racemic) :: 8.70
Cc1cccc(-c2sccc2C(=O)N2CCSC2CNC(=O)c2cccc3ncsc23)c1 (racemic) :: 8.00
Cc1nc(C(=O)N2CCSC2CNC(=O)c2cccc3c2OCCO3)c(-c2ccccc2)s1 (racemic) :: 8.00
Cc1cccc(-c2sc(C)nc2C(=O)N2CCSC2CNC(=O)c2cccc3ocnc23)c1 (racemic) :: 8.22
Cc1ccc(-c2nc(C)sc2C(=O)N2CCSC2CNC(=O)c2cccc3c2OCCO3)cc1 (racemic) :: 7.51

Consider the following items and state reported pIC50 for each.
1. COc1cccc(-c2oc(C)nc2C(=O)N2CCSC2CNC(=O)c2cccc3ncsc23)c1 (racemic)
2. Cc1nc(-c2ccc(F)cc2)c(C(=O)N2CCSC2CNC(=O)c2nn(C)c3ccccc23)s1 (racemic)
3. Cc1nc(-c2cccc(C(F)(F)F)c2)c(C(=O)N2CCSC2CNC(=O)c2nn(C)c3ccccc23)s1 (racemic)
4. Cc1nc(C(=O)N2CCSC2CNC(=O)c2cccc3c2OCCO3)c(-c2cccc(F)c2)o1 (racemic)
5. O=C(NCC1SCCN1C(=O)c1nc(C2CC2)sc1-c1cccc(F)c1)c1cccc2c1CCO2 (racemic)
6. Cc1nc(C(=O)N2CCSC2CNC(=O)c2nn(C)c3ccccc23)c(-c2ccc(C(F)(F)F)cc2)s1 (racemic)

1. 8.10
2. 7.07
3. 7.37
4. 7.17
5. 8.30
6. 7.55

Consider the following items and state reported pIC50 for each.
1. Cc1cccc(-c2sc(N(C)C)nc2C(=O)N2CCSC2CNC(=O)c2cccc3c2CCO3)c1 (racemic)
2. Cc1ccc(-c2ccccc2C(=O)N2CCSC2CNC(=O)c2cccc3ncsc23)cc1C (racemic)
3. Cc1cccc(-c2sc(C)nc2C(=O)N2CCSC2CNC(=O)c2ccc(C(F)(F)F)c3oc(C)cc23)c1 (racemic)

1. 7.85
2. 8.00
3. 7.20

Data provenance is patent US20110105491A1.
